All figures here come from patent US20210301025A1.

# assay_system: EGFR (form used in the assay not stated) (human, UniProt P00533 25-645, limits assumed)
# test_details: ELISA, NEM conjugate, 100 nM
Catalogue of binding relative to P54AR4-83v2 parent values
Give a bare numeral; the unit ratio is implied.

P54AR4-83v2 D80C, NEM conjugate (designed binder, not shown: small tags and cut ends, N-ethyl maleimide (NEM) on Cys 80) LPAPKNLVVSEVTEDSARLSWDDPWAFYESFLIQYQESEKVGEAIVLTVPGSERSYDLTGLKPGTEYTVSIYGVHNVYKCTNMRGLPLSAIFTT: 0.97

Please turn your attention to the following entry.
Which value of binding relative to P54AR4-83v2 parent has been reported for P54AR4-83v2 F27C, NEM conjugate (designed binder, not shown: small tags and cut ends, N-ethyl maleimide (NEM) on Cys 27) LPAPKNLVVSEVTEDSARLSWDDPWACYESFLIQYQESEKVGEAIVLTVPGSERSYDLTGLKPGTEYTVSIYGVHNVYKDTNMRGLPLSAIFTT in the records?
0.07
